experiment: Cytotoxicity assay (HepG2, CellTiter-Blue); assay type: cell-based; details: human; HepG2 cells, 3 days treatment; * = detection limit
MEASUREMENT NAME: CC50 at 3 days (µM)
Express your answer in µM, writing the number without its unit.

Below are worked cases with known answers.
{"MOLECULE": "CCNc1cc(F)cc2c1[nH]c1ncc(-c3cncc(C(=O)NC)c3)c(-n3ccc(C(F)(F)F)n3)c12", "VALUE MEASURED": 11.1}
{"MOLECULE": "CCNc1cc(F)cc2c1[nH]c1ncc(-c3cnc(OC)nc3)c(-n3nc(C(F)(F)F)c4c3CNC4)c12", "VALUE MEASURED": 58}
{"MOLECULE": "CCNc1cc(F)cc2c1[nH]c1ncc(-c3cnc(CN)nc3)c(-n3ccc(C(F)(F)F)n3)c12", "VALUE MEASURED": 27.4}
{"MOLECULE": "CNc1cc(F)cc2c1[nH]c1ncc(-c3cncc(C#N)c3)c(-n3cc(C#N)cn3)c12", "VALUE MEASURED": 14.6}
{"MOLECULE": "CNc1c(F)c(F)cc2c1[nH]c1ncc(-c3cncc(C#N)c3)c(-n3cc(CN)c(C(F)(F)F)n3)c12", "VALUE MEASURED": 12.8}
{"MOLECULE": "CCNc1cc(F)cc2c1[nH]c1ncc(-c3cnc(C(N)=O)nc3)c(-n3ccc(C(F)(F)F)n3)c12", "VALUE MEASURED": 20.9}

Lookup result for "CNc1cc(F)cc2c1[nH]c1ncc(-c3cnc(OC)nc3)c(-n3nc(C#N)c4c3CNC4)c12" ; measured CC50 at 3 days: 11

Lookup result for CNc1cc(F)cc2c1[nH]c1nc(Oc3cnc(C)nc3)nc(N3C[C@H]4C[C@@H]3C[C@H]4N)c12 [GP-6, reference compound] ; measured CC50 at 3 days: 5.6

Lookup result for "CCNc1cc(F)cc2c1[nH]c1ncc(-c3cnc(OC)nc3)c(-n3ncc4c3CNC4)c12" ; measured CC50 at 3 days: 30.5

Lookup result for "CCNc1cc(F)cc2c1[nH]c1ncc(-c3cncc(Cc4n[nH]c(=O)o4)c3)c(-n3ccc(C(F)(F)F)n3)c12" ; measured CC50 at 3 days: 11.4
